# assayed.target: human PCSK9 / human LDLR EGFa domain interaction (Homo sapiens, UniProt Q8NBP7)
# Sequence (Q8NBP7 153-692): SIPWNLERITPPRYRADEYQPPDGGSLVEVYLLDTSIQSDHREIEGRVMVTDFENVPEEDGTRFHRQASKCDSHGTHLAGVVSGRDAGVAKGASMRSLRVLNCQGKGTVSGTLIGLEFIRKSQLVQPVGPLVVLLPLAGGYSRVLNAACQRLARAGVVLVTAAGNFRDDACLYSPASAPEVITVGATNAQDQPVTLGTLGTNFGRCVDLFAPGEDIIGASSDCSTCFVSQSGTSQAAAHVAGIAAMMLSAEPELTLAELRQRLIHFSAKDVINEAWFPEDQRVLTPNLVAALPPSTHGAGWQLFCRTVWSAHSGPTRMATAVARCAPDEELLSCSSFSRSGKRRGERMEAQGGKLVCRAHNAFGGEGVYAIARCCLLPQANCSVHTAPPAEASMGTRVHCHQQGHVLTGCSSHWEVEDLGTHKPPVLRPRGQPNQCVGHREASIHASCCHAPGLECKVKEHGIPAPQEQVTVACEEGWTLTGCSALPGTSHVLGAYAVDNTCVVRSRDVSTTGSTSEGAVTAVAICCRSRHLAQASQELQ
# Sequence (Q8NBP7 31-152 partner limits assumed): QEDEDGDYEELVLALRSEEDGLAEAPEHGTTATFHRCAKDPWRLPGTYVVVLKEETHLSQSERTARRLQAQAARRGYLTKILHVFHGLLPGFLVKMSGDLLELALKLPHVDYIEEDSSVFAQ
# protocol.description: TR-FRET assay of inhibition of the PCSK9-LDLR protein-protein interaction
# condition.label: 20 nM avitag-biotinylated human PCSK9, 20 nM his-tagged human LDLR EGFa domain, 2 hours, room temperature
Bridge positions count the residues as written; N and C are the ends. Square brackets hold non-standard residues; d marks the D form. Peptide text beside a SMILES is read from it. Trp(7-aza) = N[C@@H](Cc1c[nH]c2ncccc12)C(=O)O; Aad = N[C@@H](CCCC(=O)O)C(=O)O; Tle = CC(C)(C)[C@H](N)C(=O)O; αMeV = CC(C)[C@](C)(N)C(=O)O; Nva = CCC[C@H](N)C(=O)O
measured.property: IC50

Give the value of IC50 reported for the following: CCC[C@@H]1NC(=O)[C@H](Cc2c[nH]c3ncccc23)NC(=O)[C@H]([C@@H](C)O)NC(=O)[C@@H]2CCCN2C(=O)[C@H](Cc2ccc(O)cc2)NC(=O)[C@H](C(C)(C)C)NC(=O)[C@@H](NC(C)=O)CCCC(=O)NCCCC[C@H](C(N)=O)NC(=O)[C@H]([C@@H](C)O)NC(=O)[C@](C)(C(C)C)NC(=O)[C@H](Cc2ccc(O)cc2)NC(=O)[C@H](C)NC1=O [Compound 072] (Ac-[Aad][Tle]YPT[Trp(7-aza)][Nva]AY[αMeV]T[dK]-NH2; lactam 1-12)
1 to 21 µM

* * *

# assayed.target: human PCSK9 / human LDLR EGFa domain interaction (Homo sapiens)
# protocol.description: TR-FRET assay of inhibition of the PCSK9-LDLR protein-protein interaction
# condition.label: 20 nM avitag-biotinylated human PCSK9, 20 nM his-tagged human LDLR EGFa domain, 2 hours, room temperature
Numbered stars: 1 amine (or outer) side, 2 acyl side, 3 side chain; on linkers, the order of the positions; unused ones are H or OH. Bridge positions count the residues as written; N and C are the ends. Square brackets hold non-standard residues; d marks the D form. Peptide text beside a SMILES is read from it. Ala(1H-tetrazol-5-yl) = N[C@@H](Cc1nnn[nH]1)C(=O)O; Trp(5-F) = N[C@@H](Cc1c[nH]c2ccc(F)cc12)C(=O)O; Trp(7-aza) = N[C@@H](Cc1c[nH]c2ncccc12)C(=O)O; 2Nal = N[C@@H](Cc1ccc2ccccc2c1)C(=O)O; mXylylene = c1cc(C[*:1])cc(C[*:2])c1; Ala(cPr) = N[C@@H](CC1CC1)C(=O)O; Tle = CC(C)(C)[C@H](N)C(=O)O; αMeV = CC(C)[C@](C)(N)C(=O)O; Ac5c = NC1(C(=O)O)CCCC1; Nva = CCC[C@H](N)C(=O)O; Ac4c = NC1(C(=O)O)CCC1; Mpa = O=C(O)CCS
Hi there, I'd appreciate the recorded IC50 for every entry that follows.

Give the value of IC50 reported for the following: CC(=O)N[C@H]1CSCc2cccc(c2)CSC[C@H](C(N)=O)NC(=O)[C@H]([C@@H](C)O)NC(=O)[C@](C)(C(C)C)NC(=O)[C@H](Cc2ccc(O)cc2)NC(=O)[C@H](C)NC(=O)C2(CCC2)NC(=O)[C@H](Cc2c[nH]c3ncccc23)NC(=O)[C@H]([C@@H](C)O)NC(=O)[C@@H]2CCCN2C(=O)[C@H](Cc2ccc(O)cc2)NC(=O)[C@H](C(C)(C)C)NC1=O [Compound 185] (Ac-C[Tle]YPT[Trp(7-aza)][Ac4c]AY[αMeV]T[dC]-NH2; linker 1-12 via mXylylene)
1 to 100 nM

Give the value of IC50 reported for the following: CCC[C@@H]1NC(=O)[C@H](Cc2c[nH]c3ccc(F)cc23)NC(=O)[C@H]([C@@H](C)O)NC(=O)[C@H](Cc2c[nH]cn2)NC(=O)[C@H](Cc2ccc(O)cc2)NC(=O)[C@H](C(C)(C)C)NC(=O)CCSCc2cccc(c2)CSC[C@@H](C(N)=O)NC(=O)[C@H]([C@@H](C)O)NC(=O)[C@H](CCC)NC(=O)[C@H](Cc2ccc(O)cc2)NC(=O)[C@H](CCC(=O)O)NC1=O [Compound 263] ([Mpa][Tle]YHT[Trp(5-F)][Nva]EY[Nva]TC-NH2; linker 1-12 via mXylylene)
100 to 1000 nM

Give the value of IC50 reported for the following: CCC[C@@H]1NC(=O)[C@H](Cc2ccc(O)cc2)NC(=O)[C@H](CCC(=O)O)NC(=O)[C@H](CC2CC2)NC(=O)[C@H](Cc2c[nH]c3ncccc23)NC(=O)[C@H]([C@@H](C)O)NC(=O)[C@H](Cc2c[nH]cn2)NC(=O)[C@H](Cc2ccc(O)cc2)NC(=O)[C@H](C(C)(C)C)NC(=O)CCSCc2cccc(c2)CSC[C@@H](C(N)=O)NC(=O)[C@H]([C@@H](C)O)NC1=O [Compound 264] ([Mpa][Tle]YHT[Trp(7-aza)][Ala(cPr)]EY[Nva]TC-NH2; linker 1-12 via mXylylene)
100 to 1000 nM

Give the value of IC50 reported for the following: CC(=O)N[C@H]1CSCc2cccc(c2)CSC[C@@H](C(N)=O)NC(=O)[C@H]([C@@H](C)O)NC(=O)[C@](C)(C(C)C)NC(=O)[C@H](Cc2ccc(O)cc2)NC(=O)[C@H](C)NC(=O)C2(CCCC2)NC(=O)[C@H](Cc2c[nH]c3ncccc23)NC(=O)[C@H]([C@@H](C)O)NC(=O)[C@@H]2CCCN2C(=O)[C@H](Cc2ccc(O)cc2)NC(=O)[C@H](C(C)(C)C)NC1=O [Compound 184] (Ac-C[Tle]YPT[Trp(7-aza)][Ac5c]AY[αMeV]TC-NH2; linker 1-12 via mXylylene)
100 to 1000 nM

Give the value of IC50 reported for the following: CCC[C@@H]1NC(=O)[C@H](Cc2c[nH]c3ncccc23)NC(=O)[C@H]([C@@H](C)O)NC(=O)[C@@H]2CCCN2C(=O)[C@H](Cc2ccc(O)cc2)NC(=O)[C@H](C(C)(C)C)NC(=O)CCSCc2cccc(c2)CSC[C@@H](C(N)=O)NC(=O)[C@H](CCC(=O)O)NC(=O)[C@H](CCC)NC(=O)[C@H](Cc2ccc(O)cc2)NC(=O)[C@H](C)NC1=O [Compound 159] ([Mpa][Tle]YPT[Trp(7-aza)][Nva]AY[Nva]EC-NH2; linker 1-12 via mXylylene)
1000 to 21000 nM

Give the value of IC50 reported for the following: CCC[C@@H]1NC(=O)[C@H](Cc2ccc3ccccc3c2)NC(=O)[C@H]([C@@H](C)O)NC(=O)[C@H](Cc2c[nH]cn2)NC(=O)[C@H](Cc2ccc(O)cc2)NC(=O)[C@H](C(C)(C)C)NC(=O)CCSCc2cccc(c2)CSC[C@@H](C(N)=O)NC(=O)[C@H]([C@@H](C)O)NC(=O)[C@H](CCC)NC(=O)[C@H](Cc2ccc(O)cc2)NC(=O)[C@H](CCC(=O)O)NC1=O [Compound 276] ([Mpa][Tle]YHT[2Nal][Nva]EY[Nva]TC-NH2; linker 1-12 via mXylylene)
1000 to 21000 nM

Give the value of IC50 reported for the following: CCC[C@@H]1NC(=O)[C@H](Cc2c[nH]c3ncccc23)NC(=O)[C@H]([C@@H](C)O)NC(=O)[C@H](Cc2c[nH]cn2)NC(=O)[C@H](Cc2ccc(O)cc2)NC(=O)[C@H](C(C)(C)C)NC(=O)CCSCc2cccc(c2)CSC[C@@H](C(N)=O)NC(=O)[C@H]([C@@H](C)O)NC(=O)[C@H](CCC)NC(=O)[C@H](Cc2ccc(O)cc2)NC(=O)[C@H](Cc2nnn[nH]2)NC1=O [Compound 253] ([Mpa][Tle]YHT[Trp(7-aza)][Nva][Ala(1H-tetrazol-5-yl)]Y[Nva]TC-NH2; linker 1-12 via mXylylene)
100 to 1000 nM

Give the value of IC50 reported for the following: CCC[C@H](NC(C)=O)C(=O)N[C@H]1CSCc2cccc(c2)CSC[C@@H](C(N)=O)NC(=O)[C@H]([C@@H](C)O)NC(=O)[C@H](CCC)NC(=O)[C@H](Cc2ccc(O)cc2)NC(=O)[C@H](CCC(=O)O)NC(=O)[C@H](CCC)NC(=O)[C@H](Cc2c[nH]c3ncccc23)NC(=O)[C@H]([C@@H](C)O)NC(=O)[C@@H]2CCCN2C(=O)[C@H](Cc2ccc(O)cc2)NC(=O)[C@H](C(C)(C)C)NC1=O [Compound 153] (Ac-[Nva]C[Tle]YPT[Trp(7-aza)][Nva]EY[Nva]TC-NH2; linker 2-13 via mXylylene)
100 to 1000 nM
